System: HOP-62 NSCLC
Assay: NCI tumour cell line growth inhibition, 48 h
quantity_kind: TGI

Exercise: I would be grateful if you could share the reported TGI for `O=S(=O)(OI(OI(OS(=O)(=O)C(F)(F)F)c1ccccc1)c1ccccc1)C(F)(F)F` .
Key: > 100 µM

Exercise: # repeat for `O=C1C=C(Nc2ccc(Cl)cc2C(=O)c2ccccc2)c2ccccc2C1=O`
Key: > 100 µM

Exercise: # repeat for COc1nc(=O)n(C2C=CC(=O)O2)cc1F (centres undefined)
Key: 81.2 µM

Exercise: # repeat for `O=c1c2c(no[n+]2[O-])c2ccccc2n1-c1ccccc1`
Key: 22.5 µM

Exercise: # repeat for `Oc1oc(C(=C2N=c3ccccc3=N2)c2ccc(Cl)cc2)c(O)c1-c1ccc(Cl)cc1`
Key: 4.51 µM

Exercise: # repeat for `O=c1[nH]c(-c2cccc(F)c2)cc2cc(F)ccc12`
Key: > 100 µM

Exercise: # repeat for `COc1cc2c3c(n(C)c(=O)c2cc1OC)-c1cc2c(cc1C3=O)OCO2`
Key: > 55 µM

Exercise: # repeat for `Cc1c2c(c(C)n1-c1ccccc1)C(=O)N(CCN1CCN(c3cccc(C(F)(F)F)c3)CC1)C2=O`
Key: > 100 µM

Exercise: # repeat for `Cc1cc(C[C@H]2O[C@@H]3OC(C)(C)O[C@@H]3[C@H]3OC(C)(C)O[C@H]32)c2ccccc2n1`
Key: > 100 µM

Exercise: # repeat for `Cc1cccc(NC2=C(Cl)C(=O)c3nc(C)ccc3C2=O)c1`
Key: 2.88 µM

Exercise: # repeat for `COc1cc(C[P+](c2ccccc2)(c2ccccc2)c2ccccc2)cc(OC)c1OC`
Key: > 100 µM

Exercise: # repeat for `C=C(C)[C@@H]1CC[C@]2(CN)CC[C@]3(C)[C@H](CC[C@@H]4[C@@]5(C)CCCNC(C)(C)[C@@H]5CC[C@]43C)[C@@H]12`
Key: 3.73 µM

Exercise: # repeat for `c1ccc(C(C(=Nc2ccc(Cc3ccc(N=C(C(c4ccccc4)c4ccccc4)N4CC4)cc3)cc2)N2CC2)c2ccccc2)cc1`
Key: 33 µM

Exercise: # repeat for `CC(C)=CCC1=C(O)c2ccccc2C(=O)C1=O`
Key: > 100 µM

Exercise: # repeat for `Cc1nc2c(N)ncnc2o1`
Key: > 100 µM

Exercise: # repeat for `Nc1ncnc2c1ccn2C/C=C/CO`
Key: > 100 µM

Exercise: # repeat for C[C@@H]1CCC2[C@@H](C)[C@@H](O[C@H]3O[C@@H]4O[C@@]5(C)CCC6[C@H](C)CCC([C@H]3C)[C@]64OO5)O[C@@H]3O[C@@]4(C)CCC1[C@@]23OO4 (some centres undefined)
Key: > 25 µM

Exercise: # repeat for COC(=O)/C=C/c1cc(OC(C)=O)c2c(c1)C(C(=O)OC)C(c1ccc(OC(C)=O)c(OC(C)=O)c1)O2 (centres undefined)
Key: > 100 µM

Exercise: # repeat for COc1cc(/C=C2\CCCCC3=C2N=C2SC(C)=CN2C3c2cc(OC)c(OC)c(OC)c2)cc(OC)c1OC (centres undefined)
Key: > 100 µM
